The measurements presented in this section are drawn from patent US20050026911A1.

So I've got a bunch of compounds here, and I need their Kb values.
Target: gastrin (CCK2) receptors (Rattus norvegicus, UniProt P30553)
Construct: The stomach was excised and flushed with ca. 1 ml of unbuffered physiological saline solution; from tissue; host or cells: isolated whole stomach of immature rats (ca. 21 days old)
Sequence (P30553 whole entry): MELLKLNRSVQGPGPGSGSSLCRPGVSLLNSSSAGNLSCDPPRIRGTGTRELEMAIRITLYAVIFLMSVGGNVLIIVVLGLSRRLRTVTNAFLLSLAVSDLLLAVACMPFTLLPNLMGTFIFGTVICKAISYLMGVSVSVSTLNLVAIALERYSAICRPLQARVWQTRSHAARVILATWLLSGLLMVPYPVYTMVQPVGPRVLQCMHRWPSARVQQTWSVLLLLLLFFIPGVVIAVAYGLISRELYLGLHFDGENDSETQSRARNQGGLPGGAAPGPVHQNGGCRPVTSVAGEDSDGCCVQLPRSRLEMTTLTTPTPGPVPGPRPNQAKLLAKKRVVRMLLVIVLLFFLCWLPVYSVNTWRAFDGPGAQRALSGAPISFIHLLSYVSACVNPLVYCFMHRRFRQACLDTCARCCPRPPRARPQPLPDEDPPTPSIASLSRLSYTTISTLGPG
Assay: gastrin (CCK2) antagonist activity in an immature rat stomach assay
Settings: pentagastrin dose-response curves, acid secretion, read-out: pKB rat stomach (converted)
Give bare numbers, in nM.

As a guide, the following entries are already answered.
compound	resultUnit	Kb
CC1(C(=O)CN2C(=O)N(CC(=O)Nc3cccc(SCC(=O)O)c3)N=C(C3CCCCC3)c3ccccc32)CCCCC1	nM	17.4
CC(C)(C)C(=O)CN1C(=O)N(CC(=O)Nc2cc(C(=O)O)cc(C(=O)O)c2)N=C(C2CCCCC2)c2ccccc21	nM	7.59
CC(C)(C)C(=O)CN1C(=O)N(CC(=O)Nc2cccc(N3CCOCC3)c2)N=C(C2CCCCC2)c2ccccc21	nM	18.2
O=C(CN1N=C(C2CCCCC2)c2ccccc2N(CC(=O)C2CCCC2)C1=O)Nc1cccc(-c2nc(=O)o[nH]2)c1	nM	0.295
CC(C)(C)C(=O)CN1C(=O)N(CC(=O)Nc2cccc3c2ccn3CC(=O)O)N=C(C2CCCCC2)c2ccccc21	nM	2.09

Count: 8. Required value per item: Kb.
1. O=C(CN1N=C(C2CCCCC2)c2ccccc2N(CC(=O)C2CCCCC2)C1=O)Nc1cccc(-c2nc(=O)o[nH]2)c1
2. CC(C)(C)C(=O)CN1C(=O)N(CC(=O)Nc2ccccn2)N=C(C2CCCCC2)c2ccccc21
3. O=C(CN1N=C(C2CCCCC2)c2ccccc2N(CC(=O)C2CCCC2)C1=O)Nc1cccc(-c2nnn[nH]2)c1
4. O=C(CN1N=C(C2CCCCC2)c2ccccc2N(CC(=O)C23CC4CC(CC(C4)C2)C3)C1=O)Nc1cccc(C(=O)O)c1
5. CC(C)(C)C(=O)CN1C(=O)N(CC(=O)Nc2cccc(C(=O)NS(C)(=O)=O)c2)N=C(C2CCCCC2)c2ccccc21
6. CC(C)(C)C(=O)CN1C(=O)N(CC(=O)Nc2cccc(Cc3nnn[nH]3)c2)N=C(C2CCCCC2)c2ccccc21
7. CCOCCNc1cccc(NC(=O)CN2N=C(C3CCCCC3)c3ccccc3N(CC(=O)C(C)(C)C)C2=O)c1
8. CC(Nc1cccc(NC(=O)CN2N=C(C3CCCCC3)c3ccccc3N(CC(=O)C(C)(C)C)C2=O)c1)C(=O)O (racemic)

-- reply
[2.19, 661, 4.37, 115, 22.9, 77.6, 105, 209]
